# credit: patent US11377442B2

# studySystem: ERα (Homo sapiens)
# Construct: expressed in transfected cells
# experiment: Counterscreening, Firefly signal with ERα transient transfection (Firefly_ERa)
# Format: cell-based
# condition: 10 uM
API: label(entry) gives true (1) if the entry's Firefly ERalpha transient, cmpd/DMSO (mean) is strictly smaller than 1; on equality or larger values it gives false (0).

See these solved cases before continuing.
- COc1ccc2nc(C(F)(F)F)c(C#N)c(NCCOc3ccc(Cl)cc3)c2c1 [Compound Z40]: true (1)
- N#Cc1c(C(F)(F)F)nc2ccc(Oc3ccccc3)cc2c1N1CCNCC1 [Compound Z51]: true (1)
- CCOC(=O)c1cnc2c(C)cc(C)cc2c1N1CCCC(N(C)C)C1 (centres unmarked) [Compound Z27]: false (0)
- CCOC(=O)c1cnc2cc(C)c(C)cc2c1NCCCN(C)C [Compound Z34]: false (0)
- COc1ccc(-c2cc3n(n2)C(N)=C(C#N)C(c2c[nH]c4ccccc24)(C(F)(F)F)N3)cc1OC (centres unmarked) [Compound Z44]: false (0)

Incoming: Please determine if CC1CCN(c2nc(N3CCC(C)CC3)nc(N3CCn4c(cccc4=O)C3)n2)CC1 [Compound 36] is below 1 in terms of Firefly ERalpha transient, cmpd/DMSO (mean).
Outgoing: true (1)

Incoming: Please determine if CCOC(=O)c1cnc2c(Cl)cc(Cl)cc2c1NCCCN1CCCC1 [Compound Z36] is below 1 in terms of Firefly ERalpha transient, cmpd/DMSO (mean).
Outgoing: false (0)

Incoming: Please determine if CNC(=O)c1cnc2c(C)cc(C)cc2c1NCCCN(C)C [Compound Z30] is below 1 in terms of Firefly ERalpha transient, cmpd/DMSO (mean).
Outgoing: false (0)

Incoming: Please determine if O=C(O)c1ccc(-n2ncc(Cl)c(Cl)c2=O)cc1 [Compound 44] is below 1 in terms of Firefly ERalpha transient, cmpd/DMSO (mean).
Outgoing: false (0)

Incoming: Please determine if CC(C)Nc1nc(N2CCCC2)nc(N2CCn3c(cccc3=O)C2)n1 [Compound 35] is below 1 in terms of Firefly ERalpha transient, cmpd/DMSO (mean).
Outgoing: true (1)

Incoming: Please determine if O=c1cccc2n1CC1CC2CN(c2nc(Cl)nc(NCCN3CCOCC3)n2)C1 (centres unmarked) [Compound 27] is below 1 in terms of Firefly ERalpha transient, cmpd/DMSO (mean).
Outgoing: false (0)

---

Reported Firefly ERalpha transient, cmpd/DMSO (mean) values for a set of compounds
# studySystem: ERα (Homo sapiens, UniProt P03372)
# Construct: expressed in transfected cells
# Sequence (P03372 whole entry, species assumed): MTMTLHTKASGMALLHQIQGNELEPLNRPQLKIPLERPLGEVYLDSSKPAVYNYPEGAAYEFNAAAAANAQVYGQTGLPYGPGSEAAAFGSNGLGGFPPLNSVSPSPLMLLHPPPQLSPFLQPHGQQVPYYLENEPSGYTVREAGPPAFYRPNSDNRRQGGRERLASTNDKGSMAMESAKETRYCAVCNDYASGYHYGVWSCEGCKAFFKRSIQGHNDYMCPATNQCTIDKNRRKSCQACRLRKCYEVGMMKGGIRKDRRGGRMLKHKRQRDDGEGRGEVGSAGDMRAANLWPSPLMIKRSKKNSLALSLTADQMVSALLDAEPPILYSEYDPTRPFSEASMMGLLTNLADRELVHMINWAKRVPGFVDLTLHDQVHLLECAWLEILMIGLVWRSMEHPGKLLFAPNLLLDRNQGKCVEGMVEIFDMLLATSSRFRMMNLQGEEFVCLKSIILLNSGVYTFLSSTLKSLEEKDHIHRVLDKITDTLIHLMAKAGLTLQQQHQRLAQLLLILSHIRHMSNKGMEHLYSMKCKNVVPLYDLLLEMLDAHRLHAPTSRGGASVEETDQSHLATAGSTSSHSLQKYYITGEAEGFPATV
# experiment: Counterscreening, Firefly signal with ERα transient transfection (Firefly_ERa)
# Type: cell-based
# condition: Table 15; 40 uM

Solved entries (count: 3):
• CC(=O)Nc1ccc(NS(C)(=O)=O)c2nonc12 = 1.1
• COc1cccc(-c2noc(Cn3ncc(Cl)cc3=O)n2)c1 = 0.8
• Cc1ccc(NC(=O)c2noc3c2CC(C)(C)CC3)cc1C = 0.9

Incoming: Consider the compound CCOC(=O)c1cnc2c(C)cc(C)cc2c1NCCCN1CCCCC1 [Compound Z12] and give its recorded Firefly ERalpha transient, cmpd/DMSO (mean).
Outgoing: 0.4

---

Reported Firefly, cmpd/DMSO repeat 2 values for a set of compounds
# studySystem: NR2F6 (Homo sapiens)
# Construct: expressed in transfected cells; also transient transfection
# Sequence (P10588 whole entry): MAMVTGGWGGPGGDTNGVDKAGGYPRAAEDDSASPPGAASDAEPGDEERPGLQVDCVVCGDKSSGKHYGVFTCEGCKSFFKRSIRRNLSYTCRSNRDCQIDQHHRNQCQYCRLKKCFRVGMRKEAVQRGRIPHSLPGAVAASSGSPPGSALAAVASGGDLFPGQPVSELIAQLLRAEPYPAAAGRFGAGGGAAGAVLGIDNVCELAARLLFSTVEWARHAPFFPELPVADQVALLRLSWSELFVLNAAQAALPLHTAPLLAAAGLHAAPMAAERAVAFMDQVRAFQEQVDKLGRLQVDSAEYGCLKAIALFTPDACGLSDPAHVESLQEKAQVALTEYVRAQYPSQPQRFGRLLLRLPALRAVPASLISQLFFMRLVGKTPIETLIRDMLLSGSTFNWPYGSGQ
# experiment: NR2F6 agonist screening, Firefly signal cmpd/DMSO
# Assay type: cell-based
# condition: C11 analogs follow set (Tables 2-10), repeat 2
Respond using a number only.

Solved entries (count: 5):
• COC(=O)c1ccc2oc(=O)c(S(=O)(=O)c3ccc(C)cc3)cc2c1 = 12.9
• O=c1oc2ccccc2cc1S(=O)(=O)c1ccccc1F = 7.3
• Cc1cc(S(=O)(=O)c2cc3cc(Cl)ccc3oc2=O)ccc1F = 11.4
• Cc1cc(S(=O)(=O)c2cc3ccccc3oc2=O)ccc1F = 7.2
• COc1ccc2cc(S(=O)(=O)c3ccc(C)cc3)c(=O)oc2c1 = 1.3

// switching to the query compound
Incoming: Consider the compound `COc1ccc(S(=O)(=O)c2cc3cc(F)ccc3oc2=O)cc1` and give its recorded Firefly, cmpd/DMSO repeat 2.
Outgoing: 1.9
